Record set: IC50 | E3 ubiquitin-protein ligase Mdm2 (Homo sapiens, UniProt Q00987) | literature, multiple sources.
Field: label. Allowed values: 1 (IC50 < 2000 nM) or -1 (IC50 >= 2000 nM).

Say whether its IC50 is strictly beneath 2000 nM. Entry: O=C(O)[C@H](c1ccc(Cl)cc1)N1C(=O)c2cc(CCO)ccc2NC(=O)[C@@H]1c1ccc(Cl)cc1
-1

Say whether its IC50 is strictly beneath 2000 nM. Entry: O=C(O)[C@H](c1ccc(Cl)cc1)N1Cc2cc(I)ccc2NC[C@@H]1c1ccc(Cl)cc1
-1

Say whether its IC50 is strictly beneath 2000 nM. Entry: O=C(O)[C@H](c1ccc(Cl)cc1)N1C(=O)c2cc(Cl)ccc2NC(=O)[C@@H]1c1ccc(Cl)cc1
1

Say whether its IC50 is strictly beneath 2000 nM. Entry: O=c1nc2n(-c3ccccc3)c3c(Br)cccc3cc-2c(=O)[nH]1
-1

Say whether its IC50 is strictly beneath 2000 nM. Entry: CCC1=C(C(=O)N2CCNC(=O)C2)SC2=N[C@@H](c3ccc(Cl)cc3)[C@@H](c3ccc(Cl)cc3)N21 (racemic)
1

Say whether its IC50 is strictly beneath 2000 nM. Entry: CCc1ccc2c(c1)C(=O)N([C@H](C(=O)O)c1ccc(Cl)cc1)[C@@H](c1ccc(Cl)cc1)C(=O)N2
1

Say whether its IC50 is strictly beneath 2000 nM. Entry: O=C1Nc2ccc(I)cc2C(=O)N([C@@H](Cc2ccccc2)C(=O)O)[C@H]1c1ccc(Cl)cc1
-1
